- ASSAY SYSTEM: Voltage-gated inwardly rectifying potassium channel KCNH2 (Homo sapiens)
- Sequence (Q12809 whole entry): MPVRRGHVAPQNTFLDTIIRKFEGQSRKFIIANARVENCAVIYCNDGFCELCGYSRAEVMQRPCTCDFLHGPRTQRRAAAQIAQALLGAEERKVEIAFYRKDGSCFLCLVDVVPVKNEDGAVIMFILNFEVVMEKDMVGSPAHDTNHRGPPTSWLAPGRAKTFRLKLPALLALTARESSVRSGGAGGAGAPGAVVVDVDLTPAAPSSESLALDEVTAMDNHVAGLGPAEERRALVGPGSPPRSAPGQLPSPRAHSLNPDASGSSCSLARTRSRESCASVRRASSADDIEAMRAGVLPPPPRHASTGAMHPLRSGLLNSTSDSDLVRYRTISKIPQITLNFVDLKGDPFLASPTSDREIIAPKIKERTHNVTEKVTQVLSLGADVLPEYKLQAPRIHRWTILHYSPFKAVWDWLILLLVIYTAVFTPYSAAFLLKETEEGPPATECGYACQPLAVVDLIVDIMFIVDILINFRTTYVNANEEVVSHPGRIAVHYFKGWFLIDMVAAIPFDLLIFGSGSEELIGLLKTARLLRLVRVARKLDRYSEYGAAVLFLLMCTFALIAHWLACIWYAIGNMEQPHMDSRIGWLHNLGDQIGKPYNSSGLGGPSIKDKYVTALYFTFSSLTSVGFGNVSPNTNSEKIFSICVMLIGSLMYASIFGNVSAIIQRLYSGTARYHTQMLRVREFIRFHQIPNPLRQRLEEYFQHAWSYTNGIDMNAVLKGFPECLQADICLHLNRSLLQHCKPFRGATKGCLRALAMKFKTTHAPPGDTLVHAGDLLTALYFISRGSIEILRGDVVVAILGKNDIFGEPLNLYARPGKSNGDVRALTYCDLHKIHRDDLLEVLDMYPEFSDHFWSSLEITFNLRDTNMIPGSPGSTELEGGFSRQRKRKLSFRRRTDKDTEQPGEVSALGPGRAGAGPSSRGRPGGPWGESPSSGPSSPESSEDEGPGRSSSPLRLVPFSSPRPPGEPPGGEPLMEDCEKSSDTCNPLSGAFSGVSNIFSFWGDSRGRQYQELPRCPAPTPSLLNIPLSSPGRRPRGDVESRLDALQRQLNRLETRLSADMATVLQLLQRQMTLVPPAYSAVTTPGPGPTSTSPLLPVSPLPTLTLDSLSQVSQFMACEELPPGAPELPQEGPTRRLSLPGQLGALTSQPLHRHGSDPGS
QUANTITY: IC50 (µM)
Numbers only; they are read as µM.

Q. Tell me its IC50 given CS(=O)(=O)c1ccc(-c2noc([C@@H](CCO)[C@H](N)C(F)=C3CCCC3)n2)c(Cl)c1.O=C(O)C(F)(F)F as the entry.
A. 47

---

- MEASUREMENT NOTES: Metabolic stability in rat liver microsomes after 60 mins in presence of NADPH
- Type: ADME, Microsome
- ASSAY CONTEXT: read-out: Stability
QUANTITY: remaining at 1 h (%)
Numbers only; they are read as %.

Q. Tell me its remaining at 1 h given C[C@H](c1nc(-c2ccc(S(C)(=O)=O)cc2Cl)no1)[C@H](N)C(=O)N1CCCC1.O=C(O)C(F)(F)F as the entry.
A. 56
